# EXPERIMENT_DESCRIPTION: Cell viability analysis (1), normal hepatocytes, MTS kit
# Format: cell-based, mice
# RUN_CONDITIONS: mouse, FL83B normal hepatocytes; DMB 5 ppm, 24 hours; read-out: Cell viability (%, relative to the blank group)

CHEM_SMILES: COc1cc(C)c(OC)c2c1OCO2
RESULT_UNITS: %
viability at 24 h, 5 ppm: 115
